- Test system: DNA
- testDescription: Quantum yield of dye on DNA versus fluorescein
- Format: physicochemical
- cond: Table 2; Tris buffered saline pH 10; fluorescein assumed 0.92
Label scheme for QY (DNA): lower than 0.3 is n, 0.3 and above is y.

INSERT INTO assay_data (compound, system, group) VALUES
  ('CCN(CC)C1=CC(=Cc2sc3ccccc3[n+]2C)c2ccccc2N1c1ccccc1', 'DNA', 'y'),
  ('CC(C)OC1=CC(=Cc2sc3ccccc3[n+]2C)c2ccccc2N1c1ccccc1', 'DNA', 'y'),
  ('C[n+]1c(C=C2C=C(Cl)N(c3ccccc3)c3ccccc32)oc2ccccc21', 'DNA', 'n'),
  ('CSC1=CC(=Cc2sc3ccccc3[n+]2C)c2ccccc2N1c1ccccc1', 'DNA', 'y'),
  ('CN1CCN(C2=CC(=Cc3sc4ccccc4[n+]3C)c3ccccc3N2c2ccccc2)CC1', 'DNA', 'y'),
  ('C[n+]1c(C=C2C=CN(c3ccccc3)c3ccccc32)sc2ccccc21', 'DNA', 'n'),
  ('C[n+]1c(C=C2C=C(c3ccccc3)N(c3ccccc3)c3ccccc32)sc2ccccc21', 'DNA', 'n'),
  ('CCCCC1=CC(=Cc2sc3ccccc3[n+]2C)c2ccccc2N1c1ccccc1', 'DNA', 'y'),
  ('CN1C(c2ccccc2)=CC(=Cc2sc3ccccc3[n+]2C)c2ccccc21', 'DNA', 'n'),
  ('CN1C(=Cc2cc(N3CCOCC3)[n+](C)c3ccccc23)Sc2ccccc21', 'DNA', 'y'),
  ('CCCCCCN1C=CC(=Cc2sc3ccccc3[n+]2C)c2ccccc21', 'DNA', 'n'),
  ('C[n+]1c(C=C2C=C(C3CCCCC3)N(c3ccccc3)c3ccccc32)sc2ccccc21', 'DNA', 'y'),
  ('COC1=CC(=Cc2sc3ccccc3[n+]2C)c2ccccc2N1c1ccccc1', 'DNA', 'y'),
  ('CN1C=CC(=Cc2sc3ccccc3[n+]2C)c2cccc(-c3ccccc3)c21', 'DNA', 'n'),
  ('CSC1=CC(=Cc2sc3ccccc3[n+]2C)c2ccccc2N1C1CCCCC1 [780 (S)]', 'DNA', 'y'),
  ('CCCCC1=CC(=CC=Cc2oc3ccccc3[n+]2C)c2ccccc2N1c1ccccc1', 'DNA', 'n'),
  ('CN1C(=Cc2cc[n+](C3CCCCC3)c3ccccc23)Sc2ccccc21', 'DNA', 'y'),
  ('CCN(CC)C1=CC(=Cc2sc3ccccc3[n+]2C)c2ccc(OC)cc2N1c1ccccc1', 'DNA', 'y'),
  ('COc1ccc2c(c1)N(c1ccccc1)C(Cl)=CC2=Cc1sc2ccccc2[n+]1C', 'DNA', 'n'),
  ('CN1C(=Cc2cc[n+](C)c3ccccc23)Sc2ccccc21 [Thiazole Orange, reference compound]', 'DNA', 'n'),
  ('CCCCc1cc(C=C2Sc3ccccc3N2C)c2ccccc2[n+]1-c1cccs1', 'DNA', 'y'),
  ('CC1=CC(=Cc2sc3ccccc3[n+]2C)c2ccccc2N1c1ccccc1', 'DNA', 'y'),
  ('CN1C(C2CCCCC2)=CC(=Cc2sc3ccccc3[n+]2C)c2ccccc21', 'DNA', 'y'),
  ('C[n+]1c(C=C2C=C(Cl)N(c3ccccc3)c3ccccc32)sc2ccccc21', 'DNA', 'n'),
  ('C[n+]1c(C=C2C=C(Cl)N(C3CCCCC3)c3ccccc32)sc2ccccc21', 'DNA', 'n'),
  ('CCCN(CCC)C1=CC(=Cc2sc3ccccc3[n+]2C)c2ccccc2N1c1ccccc1', 'DNA', 'y'),
  ('CCOC1=CC(=Cc2sc3ccccc3[n+]2C)c2ccccc2N1c1ccccc1', 'DNA', 'y'),
  ('CCCCC1=CC(=Cc2oc3ccccc3[n+]2C)c2ccccc2N1c1ccccc1', 'DNA', 'y');

Origin of measurements: patent US5534416A
